biological target: KRas G12C (Homo sapiens, UniProt P01116, G12C); format: binding; conditions: single point, 10 nM compound, read-out: Binding to KRas (% inhibition at 10 nM) G12C
Sequence (P01116 1-169 isoform P01116-2 G12C): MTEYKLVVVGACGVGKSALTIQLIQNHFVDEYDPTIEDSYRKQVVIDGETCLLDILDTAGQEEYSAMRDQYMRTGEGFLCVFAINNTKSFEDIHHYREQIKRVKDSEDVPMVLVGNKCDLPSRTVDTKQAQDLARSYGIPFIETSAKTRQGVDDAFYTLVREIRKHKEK
Measured metric: inhibition at 0.01 µM (%)

Molecule: CCc1c(F)ccc2cc(O)cc(N3CCc4c(nc(OC[C@@]56CCCN5C[C@H](F)C6)nc4N4CCCn5nc(C(=O)N6C7CCC6CC7)cc5C4)C3)c12
inhibition at 0.01 µM / %: 98

Molecule: CCc1c(F)ccc2cc(O)cc(N3CCc4c(nc(OC[C@@]56CCCN5C[C@H](F)C6)nc4N4CCCn5nc(N)c(Cl)c5C4)C3)c12
inhibition at 0.01 µM / %: 99

Molecule: CCc1c(F)ccc2cc(O)cc(N3CCc4c(nc(OC[C@@]56CCCN5C[C@H](F)C6)nc4N4CCCn5nc(C(=O)N6C[C@@H](C)N[C@@H](C)C6)cc5C4)C3)c12
inhibition at 0.01 µM / %: 100

Molecule: CCc1c(F)ccc2cc(O)cc(N3CCc4c(nc(OC[C@@]56CCCN5C[C@H](F)C6)nc4N4CCCn5nc(C(=O)N6CC[C@@H]7CC[C@H]6C7)cc5C4)C3)c12
inhibition at 0.01 µM / %: 97

Molecule: CCc1c(F)ccc2cc(O)cc(N3CCc4c(nc(OC[C@@]56CCCN5C[C@H](F)C6)nc4N4CCCn5nnc(Cl)c5C4)C3)c12
inhibition at 0.01 µM / %: 93

Molecule: CCc1c(F)ccc2cc(O)cc(N3CCc4c(nc(OC[C@@]56CCCN5C[C@H](F)C6)nc4N4CCCn5nc(NC)c(C)c5C4)C3)c12
inhibition at 0.01 µM / %: 78

Molecule: CCc1c(F)ccc2cc(O)cc(N3CCc4c(nc(OC[C@@]56CCCN5C[C@H](F)C6)nc4N4CCCn5nc(C(=O)N6CC7CCC6CN7)cc5C4)C3)c12 (some centres unmarked)
inhibition at 0.01 µM / %: 100

Molecule: CCc1c(F)ccc2cc(O)cc(N3CCc4c(nc(OC[C@@]56CCCN5C[C@H](F)C6)nc4N4CCCn5nc(C(=O)N6CC7CCC6CC7)cc5C4)C3)c12
inhibition at 0.01 µM / %: 98

Molecule: CCc1c(F)ccc2cc(O)cc(N3CCc4c(nc(OC[C@@]56CCCN5C[C@H](F)C6)nc4N4CCCn5nc(C(=O)N6CCC7CC76)cc5C4)C3)c12 (some centres unmarked)
inhibition at 0.01 µM / %: 99

Molecule: CCc1c(F)ccc2cc(O)cc(N3CCc4c(nc(OC[C@@]56CCCN5C[C@H](F)C6)nc4N4CCCn5nc(C(=O)NC6CC6)cc5C4)C3)c12
inhibition at 0.01 µM / %: 99

Molecule: CCc1c(F)ccc2cc(O)cc(N3CCc4c(nc(OC[C@@]56CCCN5C[C@H](F)C6)nc4N4CCCn5nc(C(=O)N6CC7CCC(C6)N7)cc5C4)C3)c12
inhibition at 0.01 µM / %: 100

Molecule: CCc1c(F)ccc2cc(O)cc(N3CCc4c(nc(OC[C@@]56CCCN5C[C@H](F)C6)nc4N4CCCn5nc(C(=O)N(C)C)c(COC)c5C4)C3)c12
inhibition at 0.01 µM / %: 100

Molecule: CCc1c(C(=O)N(C)C)nn2c1CN(c1nc(OC[C@@]34CCCN3C[C@H](F)C4)nc3c1CCN(c1cc(O)cc4ccc(F)c(CC)c14)C3)CCC2
inhibition at 0.01 µM / %: 99

Molecule: CCc1c(F)ccc2cc(O)cc(N3CCc4c(nc(OC[C@@]56CCCN5C[C@H](F)C6)nc4N4CCCC5(CC(=O)NC5=O)C4)C3)c12 (some centres unmarked)
inhibition at 0.01 µM / %: 83

Molecule: CCc1c(F)ccc2cc(O)cc(N3CCc4c(nc(OC[C@@]56CCCN5C[C@H](F)C6)nc4N4CCCn5nc(NC(C)C)cc5C4)C3)c12
inhibition at 0.01 µM / %: 78

Molecule: CCc1c(F)ccc2cc(O)cc(N3CCc4c(nc(OC[C@@]56CCCN5C[C@H](F)C6)nc4N4CCCn5nc(C(=O)N(C)CCOC)cc5C4)C3)c12
inhibition at 0.01 µM / %: 100

Molecule: CCc1c(F)ccc2cc(O)cc(N3CCc4c(nc(OC[C@@]56CCCN5C[C@H](F)C6)nc4N4CCCn5nc(C(=O)NC(C)C)c(C)c5C4)C3)c12
inhibition at 0.01 µM / %: 98

Molecule: CCc1c(F)ccc2cc(O)cc(N3CCc4c(nc(OC[C@@]56CCCN5C[C@H](F)C6)nc4N4CCCn5nc(C(=O)N6CC7CC(C6)N7)cc5C4)C3)c12
inhibition at 0.01 µM / %: 99

Molecule: CCc1c(F)ccc2cc(O)cc(N3CCc4c(nc(OC[C@@]56CCCN5C[C@H](F)C6)nc4N4CCCn5nc(C(=O)NC6CCC6)cc5C4)C3)c12
inhibition at 0.01 µM / %: 97

Molecule: CCc1c(F)ccc2cc(O)cc(N3CCc4c(nc(OC[C@@]56CCCN5C[C@H](F)C6)nc4N4CCCn5nc6c(c5C4)CCNC6=O)C3)c12
inhibition at 0.01 µM / %: 99

Molecule: CCc1c(F)ccc2cc(O)cc(N3CCc4c(nc(OC[C@@]56CCCN5C[C@H](F)C6)nc4N4CCCn5nc(C(=O)N6CC7CCC(C7)C6)cc5C4)C3)c12
inhibition at 0.01 µM / %: 96

Molecule: CCc1c(F)ccc2cc(O)cc(N3CCc4c(nc(OC[C@@]56CCCN5C[C@H](F)C6)nc4N4CCCn5nnc(Br)c5C4)C3)c12
inhibition at 0.01 µM / %: 95

Molecule: CCNc1cc2n(n1)CCCN(c1nc(OC[C@@]34CCCN3C[C@H](F)C4)nc3c1CCN(c1cc(O)cc4ccc(F)c(CC)c14)C3)C2
inhibition at 0.01 µM / %: 83
